Data credit: ChEMBL document CHEMBL4689842

System: HEK-293T
Test: Multiplex assay against HEK293T
Format: toxicity, cell-based
Conditions: human, 48 h, 10 µM, compound concentration 10 uM, replicate 2
recorded-endpoint: Population Healthy Nuclei (%)
Give a bare numeral; the unit % is implied.

Prompt line: System HEK-293T. Read-out Population Healthy Nuclei (%). Item CC(Cc1ccc(O)c(O)c1)C(C)Cc1ccc(O)c(O)c1 (centres undefined) [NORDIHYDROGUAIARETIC ACID] . Report value.
Response line: 67

Others:
Prompt line: Provide Population Healthy Nuclei (%), tested on HEK-293T, for CC(C)[C@H](CO)Nc1nc(Nc2cccc(Cl)c2)c2ncn(C(C)C)c2n1 .
Response line: 38
